Tested on: alpha-1-acid-glycoprotein (AGP)
Experiment: Protein binding on Chiralpak AGP HPLC column
Conditions: pH 7.4, Chiralpak AGP
Method: The measurement of the biomimetic properties of the available drugs was conducted in our laboratories. […] The protein binding of the compounds was measured using immobilised human serum albumin (HSA), and alpha-1-acid-glycoprotein (AGP) stationary phases. The phospholipid-binding was measured using the immobilised artificial membrane (IAM) stationary phase. […]
measurementType: log k AGP
Numbers only.

CN1CCN(C2=Nc3cc(Cl)ccc3Nc3ccccc32)CC1 [Clozapine]
0.99
COc1ccc(CN(CCN(C)C)c2ccccn2)cc1 [Pyrilamine]
0.49

Please find the next compound below.
So, CC(=O)S[C@@H]1CC2=CC(=O)CC[C@]2(C)[C@H]2CC[C@@]3(C)[C@@H](CC[C@@]34CCC(=O)O4)[C@H]12 [Spironolactone] ? Its log k AGP was 0.50

----------
Biological target: human serum albumin (HSA) (Homo sapiens, UniProt P02768)
Sequence (P02768 25-609): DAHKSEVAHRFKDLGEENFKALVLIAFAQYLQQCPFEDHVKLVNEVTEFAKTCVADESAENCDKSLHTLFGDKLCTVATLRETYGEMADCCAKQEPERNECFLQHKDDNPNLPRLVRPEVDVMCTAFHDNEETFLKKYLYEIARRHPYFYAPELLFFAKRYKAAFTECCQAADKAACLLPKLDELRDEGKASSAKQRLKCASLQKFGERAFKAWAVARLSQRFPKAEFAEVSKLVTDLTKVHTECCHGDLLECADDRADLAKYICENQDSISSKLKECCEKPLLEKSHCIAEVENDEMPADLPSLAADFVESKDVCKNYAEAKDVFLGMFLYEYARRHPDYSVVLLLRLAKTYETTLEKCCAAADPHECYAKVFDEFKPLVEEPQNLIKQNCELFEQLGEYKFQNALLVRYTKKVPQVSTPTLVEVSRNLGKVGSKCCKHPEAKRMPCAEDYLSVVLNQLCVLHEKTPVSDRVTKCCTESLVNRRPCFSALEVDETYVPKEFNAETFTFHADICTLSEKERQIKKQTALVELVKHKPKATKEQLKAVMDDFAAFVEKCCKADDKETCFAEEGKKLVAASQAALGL
Assay: Protein binding on Chiralpak HSA HPLC column
Conditions: pH 7.4, Chiralpak HSA
Record form. Attribute: log k HSA. Fill in for each entry.
Give bare numbers.

CC(=O)S[C@@H]1CC2=CC(=O)CC[C@]2(C)[C@H]2CC[C@@]3(C)[C@@H](CC[C@@]34CCC(=O)O4)[C@H]12 [Spironolactone]
0.78
COc1ccc(CN(CCN(C)C)c2ccccn2)cc1 [Pyrilamine]
0.44
CCCCC1=NC2(CCCC2)C(=O)N1Cc1ccc(-c2ccccc2-c2nnn[nH]2)cc1 [Irbesartan]
1.30
Nc1nnc(-c2cccc(Cl)c2Cl)c(N)n1 [Lamotrigine]
0.16
COCCc1ccc(OCC(O)CNC(C)C)cc1 (stereo not shown) [Metoprolol]
-0.72

Each compound below has a reported value. Please supply its log k HSA.
1. O=C1NC(=O)C(c2ccccc2)(c2ccccc2)N1 [Phenytoin]
2. O=C1Cc2cc(CCN3CCN(c4nsc5ccccc45)CC3)c(Cl)cc2N1 [Ziprasidone]
3. COc1ccc(CCN2CCC(Nc3nc4ccccc4n3Cc3ccc(F)cc3)CC2)cc1 [Astemizole]
4. COc1cc(N)c(Cl)cc1C(=O)NC1CCN(CCCOc2ccc(F)cc2)CC1OC (stereo not shown) [Cisapride]
5. CN1CCN(C2=Nc3cc(Cl)ccc3Nc3ccccc32)CC1 [Clozapine]

[0.69, 1.42, 1.17, 1.11, 1.04]

----------
Experiment: Charge character of the drugs at pH 7.4
Format: physicochemical
measurementType: Charge

CCCN1C[C@H](CSC)C[C@@H]2c3cccc4[nH]cc(c34)C[C@H]21 [Pergolide]
Basic
CCCCN1CCCCC1C(=O)Nc1c(C)cccc1C (stereo not shown)
Weak Base
CCCCC1=NC2(CCCC2)C(=O)N1Cc1ccc(-c2ccccc2-c2nnn[nH]2)cc1
Zwitterionic
CC(C)(C)c1ccc(C(=O)CCCN2CCC(OC(c3ccccc3)c3ccccc3)CC2)cc1
Basic
CC[C@H]1OC(=O)[C@H](C)[C@@H](O[C@H]2C[C@@](C)(OC)[C@@H](O)[C@H](C)O2)[C@H](C)[C@@H](O[C@@H]2O[C@H](C)C[C@H](N(C)C)[C@H]2O)[C@](C)(O)C[C@@H](C)/C(=N\OCOCCOC)[C@H](C)[C@@H](O)[C@]1(C)O
Basic

Each compound below has a reported value. Please supply its Charge.
1. CC[C@H]1OC(=O)[C@H](C)[C@@H](O[C@H]2C[C@@](C)(OC)[C@@H](O)[C@H](C)O2)[C@H](C)[C@@H](O[C@@H]2O[C@H](C)C[C@H](N(C)C)[C@H]2O)[C@](C)(OC)C[C@@H](C)C(=O)[C@H](C)[C@@H](O)[C@]1(C)O
2. COc1cc2nc(N3CCN(C(=O)C4COc5ccccc5O4)CC3)nc(N)c2cc1OC (stereo not shown)

["Basic", "Weak Base"]

Each compound below has a reported value. Please supply its Charge.
1. CN1CCC[C@@H]1CCO[C@](C)(c1ccccc1)c1ccc(Cl)cc1
2. CCN(CC)CCNC(=O)c1ccc(N)cc1 [Procainamide]
3. COc1c(N2C[C@@H]3CCCN[C@@H]3C2)c(F)cc2c(=O)c(C(=O)O)cn(C3CC3)c12

1: Basic; 2: Basic; 3: Zwitterionic

Each compound below has a reported value. Please supply its Charge.
1. CC[C@H]1OC(=O)[C@H](C)[C@@H](O[C@H]2C[C@@](C)(OC)[C@@H](O)[C@H](C)O2)[C@H](C)[C@@H](O[C@@H]2O[C@H](C)C[C@H](N(C)C)[C@H]2O)[C@](C)(O)C[C@@H](C)C(=O)[C@H](C)[C@@H](O)[C@]1(C)O
2. C=C[C@H]1C[N@@]2CC[C@H]1C[C@@H]2[C@@H](O)c1ccnc2ccc(OC)cc12
3. COc1cc(N)c(Cl)cc1C(=O)NC1CCN(CCCOc2ccc(F)cc2)CC1OC (stereo not shown) [Cisapride]
4. CCCCN1CCCC[C@H]1C(=O)Nc1c(C)cccc1C
5. CC(C)COCC(CN(Cc1ccccc1)c1ccccc1)N1CCCC1 (stereo not shown)
6. CCCOC(C(=O)OC1CCN(C)CC1)(c1ccccc1)c1ccccc1
7. CN(C)CCC=C1c2ccccc2CCc2ccccc21
8. OCCN1CCN(CCCN2c3ccccc3Sc3ccc(Cl)cc32)CC1

Basic
Basic
Basic
Weak Base
Basic
Basic
Basic
Weak Base
